target: CSR3 (RNase III of SPCSV) (Sweet potato chlorotic stunt virus); test: Kinetic-based FRET dose-response assay (IC50, DSS); assay type: biochemical; settings: drug sensitivity score, repeat Comm 1
Sequence (Q8JJW8 entry or part of it): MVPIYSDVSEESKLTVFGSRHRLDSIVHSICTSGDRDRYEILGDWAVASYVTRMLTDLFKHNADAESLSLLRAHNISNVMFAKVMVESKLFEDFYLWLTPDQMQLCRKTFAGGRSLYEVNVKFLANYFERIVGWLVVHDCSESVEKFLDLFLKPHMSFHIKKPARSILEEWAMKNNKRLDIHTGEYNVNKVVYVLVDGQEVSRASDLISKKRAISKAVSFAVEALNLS
Reported DSS Comm 1 by item:
reported.endpoint: DSS Comm 1

>>> experimental_value("O=C(O)c1ccc2c(c1)C1C=CCC1C(c1ccccc1)N2 (centres unmarked) [FIMM005536]")
12.4
>>> experimental_value("CN1CCc2cccc3c2[C@H]1Cc1ccc(O)c(O)c1-3 [FIMM000096, reference compound]")
12.7
>>> experimental_value("CCn1c(S)nnc1CCNC(=O)c1cccs1 [FIMM099662]")
6
>>> experimental_value("Cc1ccc(C2Nc3ccc(C(=O)O)cc3C3C=CCC32)cc1 (centres unmarked) [FIMM031755]")
7.7
>>> experimental_value("O=C(O)c1ccc(C2Nc3c(Br)cccc3C3C=CCC32)cc1 (centres unmarked) [FIMM022230]")
5.4
>>> experimental_value("COc1cc(C=C2C(=O)NC(=S)NC2=O)ccc1OCc1ccccc1[N+](=O)[O-] [FIMM101864]")
6.4
>>> experimental_value("Cc1ccc(C)c(C(=O)CSc2nnc[nH]2)c1 [FIMM027745]")
1.9
>>> experimental_value("O=C1c2c(O)ccc(O)c2C(=O)c2c(NCCNCCO)ccc(NCCNCCO)c21 [FIMM000490]")
16.9
